measurementTarget: human CYP2D6 (Homo sapiens)
Sequence (P10635 whole entry): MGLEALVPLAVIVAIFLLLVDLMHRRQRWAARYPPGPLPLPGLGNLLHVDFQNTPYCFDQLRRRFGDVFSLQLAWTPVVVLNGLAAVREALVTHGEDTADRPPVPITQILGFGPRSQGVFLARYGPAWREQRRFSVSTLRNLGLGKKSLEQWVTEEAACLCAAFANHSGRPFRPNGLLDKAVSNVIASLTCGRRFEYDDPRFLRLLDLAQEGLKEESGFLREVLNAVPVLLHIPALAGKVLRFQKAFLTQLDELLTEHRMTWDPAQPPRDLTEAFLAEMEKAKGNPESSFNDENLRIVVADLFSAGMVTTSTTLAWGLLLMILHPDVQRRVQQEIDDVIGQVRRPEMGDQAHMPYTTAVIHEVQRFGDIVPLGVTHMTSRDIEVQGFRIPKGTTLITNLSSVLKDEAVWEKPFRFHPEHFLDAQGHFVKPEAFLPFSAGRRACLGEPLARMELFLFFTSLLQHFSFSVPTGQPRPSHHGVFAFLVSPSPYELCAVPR
recordedEndpoint: CYP2D6 AC50 (half-maximal activity concentration)

Some solved cases for reference:
>>> readoutvalue("CCc1c(C(=O)NN2CCCCC2)nn(-c2ccc(Cl)cc2Cl)c1-c1ccc(Br)cc1 [Surinabant]")
"Inactive"
>>> readoutvalue("O=C(c1ccc(Cl)cc1)c1ccc(Cl)cc1 [4,4'-Dichlorobenzophenone]")
"Inactive"
>>> readoutvalue("C[C@]12CC[C@@H]3c4ccc(O)cc4CC[C@H]3[C@@H]1C[C@@H](O)[C@@H]2O [Estriol]")
"Inactive"
>>> readoutvalue("COC(=O)c1cccc(C(=O)OC)c1 [Dimethyl isophthalate]")
"Inactive"
>>> readoutvalue("CCCCN1C(=O)c2ccccc2C1=O [2-Butyl-1H-isoindole-1,3(2H)-dione]")
"Inactive"

Considering O=C(O)c1cc2ccccc2nc1C(=O)O [2,3-Quinolinedicarboxylic acid] , its CYP2D6 AC50 (half-maximal activity concentration) with human CYP2D6 (Homo sapiens) was recorded as Inactive

Considering CCC(C)c1ccccc1O (stereo not drawn) [2-(Butan-2-yl)phenol] , its CYP2D6 AC50 (half-maximal activity concentration) with human CYP2D6 (Homo sapiens) was recorded as Inactive

Considering Nc1ccc([N+](=O)[O-])c(C(F)(F)F)c1 [3-Trifluoromethyl-4-nitroanilide] , its CYP2D6 AC50 (half-maximal activity concentration) with human CYP2D6 (Homo sapiens) was recorded as Inactive

# credit: paper PMC12155096
